Data provenance: patent US20130324522A1

Target: Or47a/Or83b (Drosophila melanogaster, UniProt P81921+Q9VNB5)
Construct: Full-length cDNAs for mosquito (Anopheles gambiae) odorant receptor (OR1, OR2, OR7, OR8, OR28), and fly (Drosophila melanogaster) odorant receptor (Or47a, Or83b); expressed in transfected cells
Sequence (P81921 whole entry): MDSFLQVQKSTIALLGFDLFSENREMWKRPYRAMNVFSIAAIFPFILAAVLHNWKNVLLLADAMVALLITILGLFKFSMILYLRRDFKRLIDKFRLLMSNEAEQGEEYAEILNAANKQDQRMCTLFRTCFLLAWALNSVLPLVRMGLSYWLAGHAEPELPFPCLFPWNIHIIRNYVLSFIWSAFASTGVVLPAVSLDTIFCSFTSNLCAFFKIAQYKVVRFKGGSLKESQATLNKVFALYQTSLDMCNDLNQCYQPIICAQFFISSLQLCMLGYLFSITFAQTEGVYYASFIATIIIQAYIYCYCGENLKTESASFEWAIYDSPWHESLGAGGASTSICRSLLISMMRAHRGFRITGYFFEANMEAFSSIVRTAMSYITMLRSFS
Sequence (Q9VNB5 whole entry): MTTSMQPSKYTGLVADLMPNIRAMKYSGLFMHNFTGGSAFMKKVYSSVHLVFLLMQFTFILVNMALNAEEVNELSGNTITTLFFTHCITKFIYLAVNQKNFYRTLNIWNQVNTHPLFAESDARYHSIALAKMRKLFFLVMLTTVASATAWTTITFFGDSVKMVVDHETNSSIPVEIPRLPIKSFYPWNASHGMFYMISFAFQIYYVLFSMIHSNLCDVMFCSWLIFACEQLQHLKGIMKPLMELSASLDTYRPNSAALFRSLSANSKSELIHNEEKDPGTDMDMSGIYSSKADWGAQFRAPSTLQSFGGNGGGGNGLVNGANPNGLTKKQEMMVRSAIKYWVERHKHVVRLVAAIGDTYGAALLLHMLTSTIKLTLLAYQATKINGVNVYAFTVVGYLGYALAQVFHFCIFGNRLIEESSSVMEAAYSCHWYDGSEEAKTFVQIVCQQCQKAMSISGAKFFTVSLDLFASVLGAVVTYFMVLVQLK
Experiment: Ca2+-imaging of stable Flip-In T-Rex cell line Or47a/Or83b
Type: cell-based
Settings: Table B; read-out: IC50 OR47a
pIC50: −log10 of the molar value.
readoutName: pIC50

compound="COCCN(Cc1c(-c2ccccc2)noc1N1CCSCC1)CC(O)COCc1ccco1 (stereo not shown)" readoutname=pIC50 result="< 6.00"
compound=COc1ccccc1CCC(=O)N1CCC(CCC(=O)Nc2ccccc2)CC1 readoutname=pIC50 result="< 6.00"
compound=O=C(CCC1CCN(C(=O)c2cccc(-n3cccn3)c2)CC1)Nc1ccccc1 readoutname=pIC50 result="< 6.00"
compound=Cc1ccc(-n2nc(C)c(CCC(=O)N3CCc4ccccc4C3)c2C)cc1Cl readoutname=pIC50 result="< 6.00"
compound=COc1nc(OCC#N)nc(N2CCCCC2)n1 readoutname=pIC50 result="< 6.00"
compound="COC(=O)C(Cc1ccccc1)NC(=O)C1CC1(c1ccccc1)c1ccccc1 (stereo not shown)" readoutname=pIC50 result="< 6.00"
compound=Cc1c(C(=O)NCc2ccco2)cnn1-c1ccccc1 readoutname=pIC50 result="< 6.00"
compound=O=C(c1ccco1)N(Cc1nccn1Cc1ccccc1Cl)CC1CC1 readoutname=pIC50 result="< 6.00"
compound="COCCCN(CC(=O)N1CCc2sccc2C1c1ccc(OC)cc1)C(=O)C(C)(C)CCl (stereo not shown)" readoutname=pIC50 result="< 6.00"
compound=COc1ccc(-c2cc(-c3ccccc3)n(C(=O)CN3CCN(Cc4ccccc4)CC3)n2)cc1 readoutname=pIC50 result="< 6.00"
compound=C=CCN(Cc1nccn1Cc1ccccc1C)C(=O)CC(C)C readoutname=pIC50 result="< 6.00"
compound=CN(Cc1ccccc1)C(=O)CCC1CCN(C(=O)CCOc2ccccc2)CC1 readoutname=pIC50 result="> 7.00"
compound="CN(C)c1ccc(C(=O)N2CCOC(COCc3ccccc3F)C2)cc1 (stereo not shown)" readoutname=pIC50 result="< 6.00"
compound=c1ccc(CNc2nc(NCc3ccco3)nc(N3CCOCC3)n2)cc1 readoutname=pIC50 result="> 7.00"
compound=COc1cccc(NC(=O)CCC2CCN(C(=O)CSc3ccccc3)CC2)c1 readoutname=pIC50 result="< 6.00"
compound="CC(=O)OCC(=O)NCC1Cc2cc(Oc3ccccc3)ccc2O1 (stereo not shown)" readoutname=pIC50 result="> 7.00"
compound="COc1ccc(N2CCN(C(=O)C3CC=CCC3C(=O)NCCCCc3ccccc3)CC2)cc1 (stereo not shown)" readoutname=pIC50 result="< 6.00"
compound=Cc1cccc(NC(=O)CCC2CCN(C(=O)CCOc3ccccc3)CC2)c1 readoutname=pIC50 result="> 7.00"
compound="CCN(CC)c1onc(-c2ccccc2)c1CN(CC1CCCO1)C(=O)c1ccc2c(c1)OCO2 (stereo not shown)" readoutname=pIC50 result="< 6.00"
compound=CCOc1ccccc1C(=O)NNC(=O)COc1cc(C)cc(C)c1 readoutname=pIC50 result="< 6.00"
compound="C=CCNC(=O)C(NC(=O)c1cccc(C)c1)C1CCN(C(=O)c2cccc(Br)c2)CC1 (stereo not shown)" readoutname=pIC50 result="< 6.00"
compound=COc1ccccc1N1CCN(C(=O)c2cc3n(n2)CCN(Cc2c(F)cccc2Cl)C3=O)CC1 readoutname=pIC50 result="< 6.00"
compound="COc1ccccc1C(=O)C1CCCN(C(=O)c2cccc(N3CCOCC3)c2)C1 (stereo not shown)" readoutname=pIC50 result="> 7.00"
compound=COCCCN(Cc1c(-c2ccccc2)noc1N1CCC(C)CC1)C(=O)c1ccccc1F readoutname=pIC50 result="< 6.00"
compound="O=C(c1cccc(F)c1)N(Cc1c(-c2ccccc2)noc1N1CCCC1)CC1CCCO1 (stereo not shown)" readoutname=pIC50 result="< 6.00"
compound=COCCCN(Cc1c(-c2ccccc2)noc1N1CCCC1)C(=O)c1ccc(F)cc1 readoutname=pIC50 result="< 6.00"
compound=CN(C)c1nc(N(C)C)nc(N(C)C)n1 readoutname=pIC50 result="< 6.00"
compound=Cc1cc(C)c(Cn2ccnc2CN(C(=O)c2ccccc2F)C(C)C)c(C)c1 readoutname=pIC50 result="< 6.00"
compound="CCCCc1nc(CN2CCc3c([nH]c4ccccc34)C2c2cccc(OC)c2OC)c[nH]1 (stereo not shown)" readoutname=pIC50 result="< 6.00"
compound=COCCN(Cc1cc(Cl)ccc1OS(=O)(=O)c1ccc(F)cc1)C(=O)C1CCC1 readoutname=pIC50 result="> 7.00"
compound="CCOC(=O)C1CCCN(C(=O)c2csc(CSc3nnc(-c4cccc(OC)c4)n3-c3ccc(C)cc3)n2)C1 (stereo not shown)" readoutname=pIC50 result="< 6.00"
compound="N#Cc1ccccc1C(=O)N1CCOC(COCc2c(Cl)cccc2Cl)C1 (stereo not shown)" readoutname=pIC50 result="< 6.00"
compound=C=CCN(Cc1nccn1Cc1ccccc1F)C(=O)C1CCCC1 readoutname=pIC50 result="< 6.00"
compound=COc1nc(NC(C)C)nc(NC(C)C)n1 readoutname=pIC50 result="< 6.00"

* * *

# Lookup of reported inhibition at 4 µM keyed by entry
Molecular target: OR10/OR7 (Anopheles gambiae, UniProt B5U0U7+Q7QCC7)
Sequence (Q7QCC7 whole entry): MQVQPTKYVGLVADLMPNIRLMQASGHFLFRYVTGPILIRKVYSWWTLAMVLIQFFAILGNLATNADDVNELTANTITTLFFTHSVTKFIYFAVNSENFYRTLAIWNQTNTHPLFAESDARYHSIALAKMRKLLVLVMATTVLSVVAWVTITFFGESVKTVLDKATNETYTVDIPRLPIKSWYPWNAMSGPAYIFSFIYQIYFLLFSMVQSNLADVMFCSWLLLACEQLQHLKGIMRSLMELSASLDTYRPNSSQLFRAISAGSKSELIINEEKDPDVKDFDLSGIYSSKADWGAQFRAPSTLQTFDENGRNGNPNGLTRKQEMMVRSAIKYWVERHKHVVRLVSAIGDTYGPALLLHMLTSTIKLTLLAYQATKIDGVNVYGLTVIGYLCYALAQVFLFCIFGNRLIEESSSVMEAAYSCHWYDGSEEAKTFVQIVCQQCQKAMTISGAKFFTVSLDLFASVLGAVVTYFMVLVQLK
Sequence (B5U0U7 entry or part of it): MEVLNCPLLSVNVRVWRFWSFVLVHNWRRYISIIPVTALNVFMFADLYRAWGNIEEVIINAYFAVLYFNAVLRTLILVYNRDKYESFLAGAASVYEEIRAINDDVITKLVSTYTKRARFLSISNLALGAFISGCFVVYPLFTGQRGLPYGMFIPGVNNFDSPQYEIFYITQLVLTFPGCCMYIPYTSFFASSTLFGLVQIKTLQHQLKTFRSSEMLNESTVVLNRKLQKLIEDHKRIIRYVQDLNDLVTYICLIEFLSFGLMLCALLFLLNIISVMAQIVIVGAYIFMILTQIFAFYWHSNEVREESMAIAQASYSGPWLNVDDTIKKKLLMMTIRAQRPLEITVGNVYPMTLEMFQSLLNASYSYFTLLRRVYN
Assay: Ca2+-imaging of stable HEK293T cell line OR10/OR7
Format: cell-based
Details: HEK-293T; compound applied at 4 μM; read-out: Percent Inhibition OR10 OR7
readoutName: inhibition at 4 µM

molecule="COc1cccc(NC(=O)CCC2CCN(C(=O)CSc3ccccc3)CC2)c1 [RU-0032474]" result="< 25%"
molecule="COc1nc(OCC#N)nc(N2CCCCC2)n1 [RU-0006256]" result="51 to 74%"
molecule="COCCNC(=O)c1ccc(CSc2nnc(-c3ccc(C)cc3)n2-c2ccccc2F)cc1 [RU-0051652]" result="26 to 50%"
molecule="C=CCOc1cccc(C(=O)N2CCCC(C(=O)c3ccccc3OC)C2)c1 (stereo not shown) [RU-0029409]" result="26 to 50%"
molecule="CN(Cc1ccccc1)C(=O)CCC1CCN(C(=O)CCOc2ccccc2)CC1 [RU-0028727]" result="51 to 74%"
molecule="COc1cccc(-c2nnc(SCCCC(=O)N3CCN(C(=O)CC(C)(C)C)C(C)C3)n2-c2ccc(C)cc2)c1 (stereo not shown) [RU-0071818]" result="51 to 74%"
molecule="C=CCN(Cc1nccn1Cc1ccccc1F)C(=O)C1CCCC1 [RU-0058964]" result="> 75%"
molecule="c1ccc(CNc2nc(NCc3ccco3)nc(N3CCOCC3)n2)cc1 [RU-0020050]" result="< 25%"
molecule="CCN(CC)C(=O)Oc1ccc2c(ccn2Cc2cccc(C)c2)c1NC(=O)[C@H](C)OC(C)=O [RU-0075468]" result="26 to 50%"
molecule="O=C(Cc1cccc(F)c1)N1CCOC(COCc2c(Cl)cccc2Cl)C1 (stereo not shown) [RU-0050398]" result="< 25%"

* * *

Target: serotonin receptor (5HT3) (Mus musculus, UniProt P23979)
Construct: Full-length cDNAs for mosquito (Anopheles gambiae) odorant receptor; expressed in transfected cells
Sequence (P23979 24-489): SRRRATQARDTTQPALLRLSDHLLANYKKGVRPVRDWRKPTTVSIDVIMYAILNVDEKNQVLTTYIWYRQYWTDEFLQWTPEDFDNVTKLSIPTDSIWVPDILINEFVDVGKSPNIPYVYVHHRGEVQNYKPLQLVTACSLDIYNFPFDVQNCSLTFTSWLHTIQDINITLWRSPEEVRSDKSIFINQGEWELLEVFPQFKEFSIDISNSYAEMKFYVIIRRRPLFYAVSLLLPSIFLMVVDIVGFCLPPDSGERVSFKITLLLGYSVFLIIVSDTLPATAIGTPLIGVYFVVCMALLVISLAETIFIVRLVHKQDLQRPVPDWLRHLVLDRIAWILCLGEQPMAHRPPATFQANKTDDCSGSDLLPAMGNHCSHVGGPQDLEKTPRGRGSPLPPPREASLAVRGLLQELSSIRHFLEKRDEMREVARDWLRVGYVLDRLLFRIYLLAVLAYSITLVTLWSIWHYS
Assay: Ca2+-imaging of stable Flip-In T-Rex cell line 5HT3
Type: cell-based
Details: compound applied at 4 μM; read-out: Percent Inhibition 5HT3
# Lookup of reported inhibition at 4 µM keyed by entry
readoutName: inhibition at 4 µM

compound=CCN(CC)c1onc(-c2ccc(F)cc2)c1CN(CCCOC)C(=O)c1ccc2c(c1)OCO2 studysystem="serotonin receptor (5HT3) (Mus musculus, UniProt P23979)" result="26 to 50%"
compound=CC(C)N(Cc1nccn1Cc1c(F)cccc1Cl)C(=O)c1ccc(Cl)cc1 studysystem="serotonin receptor (5HT3) (Mus musculus, UniProt P23979)" result="< 25%"
compound=CC(C)CN(Cc1nccn1Cc1c(F)cccc1Cl)C(=O)c1ccc(F)cc1 studysystem="serotonin receptor (5HT3) (Mus musculus, UniProt P23979)" result="< 25%"
compound=Cc1cccc(NC(=O)CCC2CCN(C(=O)CCOc3ccccc3)CC2)c1 studysystem="serotonin receptor (5HT3) (Mus musculus, UniProt P23979)" result="26 to 50%"
compound=COc1ccc(-c2cc(-c3ccccc3)n(C(=O)CN3CCN(Cc4ccccc4)CC3)n2)cc1 studysystem="serotonin receptor (5HT3) (Mus musculus, UniProt P23979)" result="51 to 74%"
compound=Cc1ccc(CN(Cc2ccc(F)cc2)C(=O)CN(C(=O)NC(C)(C)C)C2CC2)s1 studysystem="serotonin receptor (5HT3) (Mus musculus, UniProt P23979)" result="< 25%"
compound="COc1ccc(OCC(=O)N2CCOC(Cc3ccccc3)C2)cc1 (stereo not shown)" studysystem="serotonin receptor (5HT3) (Mus musculus, UniProt P23979)" result="< 25%"
compound="COc1ccc(-n2c(Cc3ccccc3)nnc2SCCCC(=O)N2CCN(C(=O)c3ccc(C(F)(F)F)cc3)C(C)C2)cc1 (stereo not shown)" studysystem="serotonin receptor (5HT3) (Mus musculus, UniProt P23979)" result="26 to 50%"
compound="CCN(CC)c1onc(-c2ccccc2)c1CN(CC1CCCO1)C(=O)c1ccc2c(c1)OCO2 (stereo not shown)" studysystem="serotonin receptor (5HT3) (Mus musculus, UniProt P23979)" result="51 to 74%"
compound=Cc1nn(-c2ccc(Cl)cc2)c(C)c1C(=O)NCc1ccccn1 studysystem="serotonin receptor (5HT3) (Mus musculus, UniProt P23979)" result="< 25%"
compound=O=C(C1CCC1)N(Cc1ccco1)Cc1nccn1Cc1ccccc1Cl studysystem="serotonin receptor (5HT3) (Mus musculus, UniProt P23979)" result="< 25%"
compound=c1ccc(CNc2nc(NCc3ccco3)nc(N3CCOCC3)n2)cc1 studysystem="serotonin receptor (5HT3) (Mus musculus, UniProt P23979)" result="26 to 50%"
compound=CCOC(=O)c1c(NC(C)=O)c(-c2ccc(OC)cc2)cn1Cc1ccccc1 studysystem="serotonin receptor (5HT3) (Mus musculus, UniProt P23979)" result="< 25%"
compound=COCCCN(Cc1c(-c2ccccc2)noc1N1CCCC1)C(=O)c1ccc(F)cc1 studysystem="serotonin receptor (5HT3) (Mus musculus, UniProt P23979)" result="26 to 50%"
compound=O=C(CCC1CCN(C(=O)c2cccc(-n3cccn3)c2)CC1)Nc1ccccc1 studysystem="serotonin receptor (5HT3) (Mus musculus, UniProt P23979)" result="< 25%"
compound="COc1ccc(N2CCN(C(=O)C3CC=CCC3C(=O)NCCCCc3ccccc3)CC2)cc1 (stereo not shown)" studysystem="serotonin receptor (5HT3) (Mus musculus, UniProt P23979)" result="< 25%"
compound=CCN(CC)C(=O)Oc1ccc2c(ccn2Cc2cccc(C)c2)c1NC(=O)[C@H](C)OC(C)=O studysystem="serotonin receptor (5HT3) (Mus musculus, UniProt P23979)" result="< 25%"
compound="CCCCCCCC(=O)N1CCCC(C(=O)NC2CCCC[C@H]2NC(=O)c2ccccc2C)C1 (stereo partly shown)" studysystem="serotonin receptor (5HT3) (Mus musculus, UniProt P23979)" result="< 25%"
compound=O=C(c1ccco1)N(Cc1nccn1Cc1c(F)cccc1Cl)C1CC1 studysystem="serotonin receptor (5HT3) (Mus musculus, UniProt P23979)" result="< 25%"
compound="Cc1ccccc1C(=O)N[C@@H]1CCCCC1NC(=O)C1CCN(C(=O)C23CC4CC(CC(C4)C2)C3)CC1 (stereo partly shown)" studysystem="serotonin receptor (5HT3) (Mus musculus, UniProt P23979)" result="< 25%"
compound="C=C[C@@](C)(O)CCC1C(=C)CCC2[C@@](C)(CO)CCC[C@]12C (stereo partly shown)" studysystem="serotonin receptor (5HT3) (Mus musculus, UniProt P23979)" result="26 to 50%"
compound=CCOc1ccccc1C(=O)NNC(=O)COc1cc(C)cc(C)c1 studysystem="serotonin receptor (5HT3) (Mus musculus, UniProt P23979)" result="26 to 50%"
compound=C=CCN(Cc1nccn1Cc1ccccc1F)C(=O)C1CCCC1 studysystem="serotonin receptor (5HT3) (Mus musculus, UniProt P23979)" result="51 to 74%"
compound=CCNc1nc(NC(C)C)nc(N(C#N)Cc2ccccc2)n1 studysystem="serotonin receptor (5HT3) (Mus musculus, UniProt P23979)" result="51 to 74%"
compound=COCCCN(Cc1c(-c2ccccc2)noc1N(C)C(C)C)C(=O)c1ccccc1OC studysystem="serotonin receptor (5HT3) (Mus musculus, UniProt P23979)" result="26 to 50%"
